tested on: CCRIS mutagenicity, Ames/micronucleus/aberration tests; test: CCRIS mutagenicity studies; conditions: Test System: AMES SALMONELLA TYPHIMURIUM; Strain/Indicator: TA98; Metabolic Activation: RAT, LIVER, S-9, AROCLOR 1254; Method: PREINCUBATION
Active and inactive are the calls of the source. How the calls were made is not given here.
A correct response names exactly one class from YES (active), NO (inactive)

Use these answered entries as a reference point.
Brc1c(Br)c(Br)c(Br)c(Br)c1Br: NO
CCN(CC)C(=S)SSC[C@H](NC(C)=O)C(=O)O: NO
COP(=O)(SC)SC: NO
Clc1cc2c(cc1Cl)Oc1cc(Cl)c(Cl)cc1O2: NO
NS(=O)(=O)c1cc2c(cc1Cl)NCNS2(=O)=O: NO
Cc1cc(=O)oc2cc(O)cc(O)c12: NO

input: Recorded test call requested for O=C1CCc2ccccc2O1
output: NO

input: Recorded test call requested for Nc1ccc([N+](=O)[O-])cc1N
output: YES

input: Recorded test call requested for Fc1ccc2c3c(ccc2c1)-c1cccc2cccc-3c12
output: YES

input: Recorded test call requested for C[C@@H]1Cc2c(Cl)cc(C(=O)NC(Cc3ccccc3)C(=O)O)c(O)c2C(=O)O1 (stereo partly drawn)
output: NO

input: Recorded test call requested for Nc1ccc(N)c2c1C(=O)c1c(N)ccc(N)c1C2=O
output: YES

input: Recorded test call requested for O=Nc1cc2c3ccccc3ccc2c2ccccc12
output: YES

input: Recorded test call requested for CC(I)C1OCC(CO)O1 (stereo not drawn)
output: NO

input: Recorded test call requested for Oc1ccc2ccc3cc4ccccc4c4ccc1c2c34
output: YES

input: Recorded test call requested for Cc1cccs1
output: NO

input: Recorded test call requested for CC(=O)NNC(=O)c1ccccn1
output: NO

input: Recorded test call requested for C[C@]12CC[C@@H]3c4ccc(O)cc4CC[C@H]3[C@@]13CC[C@]2(O)[C@H](O)C3
output: NO

input: Recorded test call requested for O=c1[nH]c(=O)n([C@H]2C[C@H](O)[C@@H](CO)O2)cc1CCCCl
output: NO

input: Recorded test call requested for CC(=O)Nc1ccc(S(N)(=O)=O)cc1
output: NO

input: Recorded test call requested for ClC(Cl)(Cl)c1ccccc1
output: YES

* * *

tested on: CCRIS mutagenicity, Ames/micronucleus/aberration tests; assay: CCRIS mutagenicity studies; details: Test System: AMES SALMONELLA TYPHIMURIUM; Strain/Indicator: TA100; Metabolic Activation: RAT, LIVER, S-9, AROCLOR 1254; Method: PREINCUBATION
The source made the active and inactive calls. The rule behind the calls is not given here.
A correct response names exactly one class from T = active, F = inactive

CC(I)C1OCC(CO)O1 (configuration not stated): T
Nc1ccc(N)c2c1C(=O)c1c(N)ccc(N)c1C2=O: F
CC(=O)Nc1ccc(Oc2ccc(N(OC(C)=O)C(C)=O)cc2)cc1: T

input: Recorded test call requested for NS(=O)(=O)c1cc2c(cc1Cl)NCNS2(=O)=O
output: F

input: Recorded test call requested for CC(=O)Oc1cc([N+](=O)[O-])c2ccc3cccc4ccc1c2c43
output: T

input: Recorded test call requested for O=NN1CCSC1
output: T

input: Recorded test call requested for C=C(C)[C@H]1CC=C(C)CC1
output: F

input: Recorded test call requested for Nc1ccc([N+](=O)[O-])cc1N
output: T

input: Recorded test call requested for O=C(O)/C=C/c1cccc([N+](=O)[O-])c1
output: T

input: Recorded test call requested for CC(=O)Nc1ccc(Oc2ccc(N(O)C(C)=O)cc2)cc1
output: T
